- System: antibodies to HCV
- Protocol text: Peptide ELISA for relative immunoreactivity, 8 member HCV serum panel (Panel I)
- Assay type: binding, human
- Measurement conditions: NS-5 peptides (Table 12); Panel I; pep11 as a standard
Could you please mark Criterion met for values of % IP below 20% and Criterion not met for values at or above it?

Query: Threshold test, % IP < 20%: DPSHITAEAAGRRLARGSPPSVASSSASQLSAPSLKATCTANHDSP [Pep4]
Response: Criterion met

Query: Entry to check: CQVPSPEFFTELDGVRLHRFAPPCKPLLREEVSFRVGLHEYPVGSQLPCEPEPD [311C]
Response: Criterion met

Query: Entry to check: SECTTPCSGSWLRDIWDWICEVLSDFKTWLKAKLMPQL [314B]
Response: Criterion met

Query: Entry to check: LRRLHQWISSECTTPCSGSWLRDIWDWICEVLSDFKTWLKAKLMPQL [314C]
Response: Criterion met

Query: Entry to check: LWRVSAEEYVEIRQVGDFHYVIGMTTDNLKCPCQVPSP [312C]
Response: Criterion not met

Query: Entry to check: DAELIEANLLWRQEMGGNITRVESENKVVILDSFDPLVAEEDER [Pep5]
Response: Criterion not met
